target.desc: DA receptors
test.details: In vitro receptor binding studies
measurement.setup: read-out: IC50 (affinity for DA receptors)
Counter-ions that a name gives are not always drawn.
measured.quantity: IC50

Request: I'd like to know its IC50. The molecule in question is O=C(CN1CCC(CN2Cc3ccccc3C2=O)CC1)c1ccc(F)cc1 [Compound (I), monohydrochloride dihydrate]
Response: > 1000 nM

====

test.details: Part 1 single dose MR formulation pharmacokinetic study in healthy CYP2D6 EM male subjects
Type: in vivo, human
measurement.setup: male, human, plasma, oral, 32 mg, Period 1, 32 mg Slow Release, Fasted, plasma analyte; read-out: Cmax, Median
Where a name gives a salt, the structure may show the parent alone.
measured.quantity: Cmax
Quick note: number first, unit second.

Request: I'd like to know its Cmax. The molecule in question is O=C(CN1CCC(CN2Cc3ccccc3C2=O)CC1)c1ccc(F)cc1 [Compound (I), monohydrochloride dihydrate]
Response: 23.7 ng/mL
